Data provenance: ChEMBL document CHEMBL5303304

Tested on: Fibroblast
run-description: Incucyte cell viability with human fibroblast; further: unitless GR value; below 1 slowed growth and below 0 cell loss
Assay type: toxicity, cell-based
test-context: 24 h, 10 µM, compound concentration 10 uM, replicate number 2
Can you tell me Growth Rate for the items I'm about to list?
One number for each entry.

I'm hoping you can list Growth Rate for every compound here, please.
1. Cc1cc(Cn2c(N3CC4(CNC4)C3)nc3cc(Cl)cc(N4CCN(C)CC4)c32)cc(C)c1F
2. CC(=O)Oc1ccc2c(c1)[C@@]1(C)CCC[C@](C)(C(=O)OC(=O)[C@@]3(C)CCC[C@]4(C)c5cc(OC(C)=O)ccc5CC[C@@H]34)[C@@H]1CC2 [ACETYL PODOCARPIC ACID ANHYDRIDE]
3. CSc1ccc(C[C@@H](C)C(=O)O)cc1Nc1nc(N2CC[C@H](N(C)C)C2)cc(C(F)F)c1C#N.O=C(O)C(F)(F)F
4. C[C@@H]1C[C@H](N)C[C@H](c2ccncc2NC(=O)c2ccc(F)c(-c3c(F)cccc3F)n2)C1 [LGH-447]
5. N=C(N)NCCC[C@H](NC(=O)CC1(CC(=O)N2CCN(C(c3ccccc3)c3ccccc3)CC2)CCCC1)C(=O)NCc1ccccc1.O=C(O)C(F)(F)F.O=C(O)C(F)(F)F
6. CNC(=O)c1c[nH]c2ccc(Nc3nccc(-c4ccccn4)n3)cc12
7. O=C(Cc1ccccc1)Nc1nnc(N2C[C@H]3C[C@@H]2CN3c2cccnn2)s1 [A-446]

Response given:
1. 0.36
2. 0.62
3. 0.79
4. 0.44
5. 0.64
6. 0.75
7. 0.04

###

System: U2OS
run-description: Incucyte cell viability with U2OS; further: unitless GR value; below 1 slowed growth and below 0 cell loss
Format: toxicity, cell-based
test-context: human, 12 h, 10 µM, compound concentration 10 uM, replicate number 2
metric-name: Growth Rate
One number for each entry.

Known Growth Rate results, listed for orientation:
* NCC1CCC(CNc2nc(NCc3ccccc3OC(F)(F)F)ncc2[N+](=O)[O-])CC1 (stereo not given) | 0.59
* c1cc(-c2cnn3cc(-c4ccc(N5CCNCC5)cc4)cnc23)c2cccnc2c1 | -0.61
* COc1cc(C(N)=O)ccc1Nc1ncc2c(n1)N(CCC(C)C)[C@H](C)C(=O)N2C | 0.18

Provide the reported Growth Rate of each entry below, same order.
1. O=C1NCc2ccc3c(-c4cccc(Cl)c4)c[nH]c3c21
2. Cc1cnc(Nc2ccc(C(=O)N3CCN(C)CC3)cc2)nc1N[C@@H]1CCC[C@@H]1C(N)=O

Response given:
[-0.15, 0.38]

###

Kindly supply the reported Growth Rate values for the records listed here.
System: Fibroblast
run-description: Incucyte cell viability with human fibroblast; further: unitless GR value; below 1 slowed growth and below 0 cell loss
Assay type: toxicity, cell-based
test-context: 18 h, 10 µM, compound concentration 10 uM, replicate number 1

// worked examples, Growth Rate included
- Cc1cc([N+](=O)[O-])c(NS(=O)(=O)c2cccc(C(=O)O)c2)cc1-c1cccnc1: 0.5
- CC(C)c1cnn2c(NCc3ccccc3)cc(NCCCCCCN)nc12.Cl: 0.9
- Nc1ncc2c(n1)-c1c([nH]c3ccc(C4=CCOCC4)cc13)CCC2: 0.73
- CCn1c(-c2nonc2N)nc2c(C#CC(C)(C)O)ncc(OCC3CCCNC3)c21 (centres undefined): -0.63
- CN(CC(=O)Nc1ccc(F)c(F)c1F)C(=O)c1ccc2c(c1)OCCO2: 0.79

For every item below, please supply its Growth Rate.
1. CN[C@@H](C)C/C=C/c1cncc(OC(C)C)c1
2. CC(=O)c1ccc2c(c1)/C(=C(/NC1CCN(C)CC1)c1ccc3c(c1)OCO3)C(=O)N2
3. CC(C)n1nc(-c2cnc(N)c(OC(F)(F)F)c2)cc1[C@H]1[C@@H]2CN(C3COC3)C[C@@H]21
4. CN1CCC(F)(Cn2cnc(-c3ccc(F)cn3)c2-c2ccnc3[nH]ccc23)CC1

Response given:
[0.22, 0.78, 0.08, 0.66]

###

System: HEK-293T
run-description: Incucyte cell viability with HEK293T; further: unitless GR value; below 1 slowed growth and below 0 cell loss
Assay type: toxicity, cell-based
test-context: human, 12 h, 10 µM, compound concentration 10 uM, replicate number 2
metric-name: Growth Rate
Answers are plain numbers.

These recorded examples may help you get a feel for the data.
- CCNC(=O)c1ccc2c(c1)NC(=O)/C2=C(\Nc1ccc(CN(C)C)cc1)c1ccccc1: 0.83
- O=C1NC(NC23CC4CC(CC(C4)C2)C3)=N/C1=C\c1ccc2ncsc2c1: 0.34
- Cl.O=C1c2cccc3c2[C@H](CCC3)CN1[C@@H]1CN2CCC1CC2 [PALONOSETRON HYDROCHLORIDE]: 0.03

# ---- query molecule ----
Challenge: What value of Growth Rate has been reported for the following molecule? `CC(=O)Nc1nc(C)c(S(=O)(=O)Nc2ccc(C(O)(C(F)(F)F)C(F)(F)F)cc2)s1`
Response given: 0.89

###

Tested on: U2OS
run-description: Incucyte cell viability with U2OS; further: unitless GR value; below 1 slowed growth and below 0 cell loss
Format: toxicity, cell-based
test-context: human, 0 h, 10 µM, compound concentration 10 uM, replicate number 2
Grouping rule (Growth Rate): small value (below -0.2), mid value (-0.2 to below 0.6), large value (0.6 or more)

* C[C@@H](C(N)=O)[C@H](N)c1nc2cc(C(C)(C)C)ccc2[nH]1 [PF-06305591] | small value
* Cc1ccc(S(=O)(=O)O)cc1.Cn1cc(Nc2nccc(N3CC4CCC(C3)N4C(=O)[C@@H]3CC3(F)F)n2)cn1 | mid value

Challenge: State the class of the compound shown: COCCc1ccc(-c2c(C)nc3c(N4CCOCC4)ccnn23)cn1 [JNJ-42396302]
Response given: mid value

Challenge: How about this compound: `COc1cc(C(=O)NC2CCN(C)CC2)ccc1Nc1ncc(C(F)(F)F)c(NCc2ccc(C)cc2N(C)S(C)(=O)=O)n1.O=CO.O=CO`
Response given: small value

Challenge: Queued: `Cc1cnc(Nc2ccc(C(=O)N3CCN(C)CC3)cc2)nc1N[C@@H]1CCC[C@@H]1C(N)=O`
Response given: mid value

Challenge: Here is the next compound: `COc1ccc2nc3ccc(OC)cc3c(SCCCN)c2c1.Cl`
Response given: small value

Challenge: Param item: `Cc1nc2c(cc1F)c(-c1nnc3c(n1)NC(=O)C3(C)C)nn2Cc1cccc(F)c1F`
Response given: large value

###

System: U2OS
run-description: Incucyte cell viability with U2OS; further: unitless GR value; below 1 slowed growth and below 0 cell loss
Format: toxicity, cell-based
test-context: human, 24 h, 10 µM, compound concentration 10 uM, replicate number 2
Please go through the items and note down their Growth Rate.

• CCO[C@H](COc1ccc(C(F)(F)F)cc1)CSc1ccc(OCC(=O)[O-])c(C)c1.[Na+] = 0.78
• CC(=O)Nc1nc(CN2CCC[C@H](Cc3cc(C)nc(C)c3)C2)cs1 [JNJ-73924149] = 0.91
• COc1cc(C(N)=O)ccc1Nc1ncc2c(n1)N(CCC(C)C)[C@H](C)C(=O)N2C = 0.27
• Cc1[nH]c2c(N3CCCCC3)c(-c3ccccc3)nn2c(=O)c1-c1ccc(O)cc1 = 0.82
• COc1ccc(CC[C@@H](OC(=O)[C@H]2CCCCN2C(=O)[C@@H](c2cc(OC)c(OC)c(OC)c2)C2CCCCC2)c2cccc(OCCN3CCOCC3)c2)cc1OC = 0.87

Go through the list and state Growth Rate for each entry.
1. C[C@@H]1OCC2(CCN(c3cnc(Sc4ccnc(N)c4Cl)c(N)n3)CC2)[C@@H]1N [BATOPROTAFIB]
2. c1ccc(Cn2c(N3CCNCC3)nc3ccccc32)cc1 [LERISETRON]
3. C=CC(=O)Nc1cccc(C(=O)Nc2ccc(Nc3cc(-c4c(-c5ccc(F)cc5)nc(SC)n4C)ccn3)cc2)c1

Response given:
[0.99, 0.99, 0.97]

###

System: U2OS
run-description: Incucyte cell viability with U2OS; further: unitless GR value; below 1 slowed growth and below 0 cell loss
Assay type: toxicity, cell-based
test-context: human, 6 h, 10 µM, compound concentration 10 uM, replicate number 2
Assignment: determine reported Growth Rate for the given compounds.
One number for each entry.

Example compounds with recorded Growth Rate:
- CN1CCC(C#N)(NC(=O)[C@@H](NC(=O)N2CCOCC2)C(C)(C)C)CC1: 0.92
- O=C(CCCN1CCC(O)(c2ccc(Cl)cc2)CC1)c1ccc(F)cc1: 0.98
- COCCc1ccc(-c2c(C)nc3c(N4CCOCC4)ccnn23)cn1: 0.56
- CC(C)n1cnc2c(Nc3cccc(Cl)c3)nc(N[C@H]3CCCC[C@@H]3N)nc21: 0.88

Attention now shifts to the item below.
Challenge: Recorded Growth Rate for `Cc1ccc2c(NS(=O)(=O)c3ccccc3Cl)cccc2c1Oc1ncccc1-c1ccnc(N[C@H]2CCCNC2)n1.Cl` , please?
Response given: 0.75

###

Test system: Fibroblast
run-description: Incucyte cell viability with human fibroblast; further: unitless GR value; below 1 slowed growth and below 0 cell loss
Format: toxicity, cell-based
test-context: 6 h, 10 µM, compound concentration 10 uM, replicate number 1
metric-name: Growth Rate
Give bare numbers.

Previously resolved entries follow.
* CCCC(=O)C1CCN(c2ncnc3c2CN(C(=O)c2ccc(-c4ccccc4)cc2)CC3)CC1 | 0.84
* Cc1ccc2c(NS(=O)(=O)c3ccccc3Cl)cccc2c1Oc1ncccc1-c1ccnc(N[C@H]2CCCNC2)n1.Cl | 0.69
* COC[C@@H](CC(C)C)NC1=N/C(=C\c2ccc3ncsc3c2)C(=O)N1C | -0.97
* CS(=O)(=O)O.C[C@H](NC(=O)c1cnc2n1[C@](C)(Cc1ccc(C#N)cc1)C(=O)N2c1cc(Cl)c(F)c(Cl)c1)C(=O)NC1(c2ccccn2)CC1 | 0.73
* CC(C)S(=O)(=O)c1ccccc1Nc1nc(N[C@@H]2CCCN(CCCCCCCNC(=O)COc3cccc4c3C(=O)N(C3CCC(=O)N(C)C3=O)C4=O)C2)ncc1Cl (some centres undefined) | 0.41
* CCC(=N\O)/C(C)=C/c1ccc(F)cc1 [A-079] | 0.02

Batch of 3 compounds: report Growth Rate for each.
1. Cc1cc(S(=O)(=O)N2CC(C)(C)c3cc(-c4ccc(C(F)(F)F)cc4)ccc32)ccc1OCC(=O)O
2. NC(=O)c1cc(-c2ccnc(NC3CCCCC3)c2)nc(N2CCNCC2)c1
3. Cc1cc(Nc2cc(N)ncn2)c(=O)n2c1C(=O)NC21CCCCC1 [TOMIVOSERTIB]

Response given:
[0.92, 0.63, 0.58]

List reported Growth Rate for each of these compounds:
1. Cc1ccc(S(=O)(=O)O)cc1.Cn1cc(-c2ccc(F)c(C(F)(F)F)c2)nc1C1CCN(c2ncnc3[nH]ncc23)CC1
2. COc1cc(C(=O)N2CC[C@@H](O)[C@@H](N)C2)cc2nc(-c3cc4ccccc4n3CC3CC3)n(C)c12.Cl
3. COc1cc(-c2cc3ncccc3c(OC[C@H]3CNC(=O)C3)n2)cc(OC)c1OC1CCOCC1.O=C(O)C(F)(F)F
4. CC(C)N1CCN(Cc2cnc(-c3cc(-c4cccc5[nH]ccc45)cc4[nH]ncc34)o2)CC1 [NEMIRALISIB]

Response given:
1: -1; 2: -1; 3: 0.72; 4: -0.06

For each listed entry, give its Growth Rate.
1. CN(C)C(=O)Cn1cc(-c2ccc(-c3cncc4ccccc34)cc2)cn1
2. COc1ccccc1S(=O)(=O)Nc1ccc2c(c1)CN(C)C(=O)N2
3. CCn1ccc(Nc2ncc3c(n2)-c2c(nn(C)c2-c2ccc(-c4cnn(C)c4)cc2Cl)CC3)n1
4. CN1CCN(c2nc(C3=C(c4c[nH]c5ccccc45)C(=O)NC3=O)c3ccccc3n2)CC1 [SOTRASTAURIN]

Response given:
1: 0.8; 2: 0.3; 3: 0.64; 4: -0.88

Working through the 8 compounds below one at a time, give Growth Rate for each.
1. Cc1c(C(=O)NCCCN(C)C)sc2ncnc(Nc3ccc(F)cc3OC(C)CF)c12 (centres undefined)
2. CS(=O)(=O)CCNCc1ccc(-c2ccc3ncnc(Nc4ccc(OCc5cccc(F)c5)c(Cl)c4)c3c2)o1 [LAPATINIB]
3. COc1ccc(S(=O)(=O)N2CCOCC2)cc1Nc1ccc2c(n1)N(C1CCN(C)CC1)[C@H](C)C(=O)N2C
4. CC[C@](C)(O)C#Cc1cc2c(ccn2-c2cc(OC)nc(N)n2)cn1
5. C/C=C1\C(=O)CC2C3CCC4=CC(=O)CC[C@]4(C)C3CC[C@]12C (some centres undefined)
6. Fc1cccc(-n2cnc3c(NCc4nc5ccc(F)c(F)c5[nH]4)nc(N4CCOCC4)nc32)c1
7. N=C(N)NCCC[C@H](NC(=O)CC1(CC(=O)N2CCN(C(c3ccccc3)c3ccccc3)CC2)CCCC1)C(=O)NCc1ccccc1.O=C(O)C(F)(F)F.O=C(O)C(F)(F)F
8. CC(CNS(=O)(=O)C(C)C)c1ccc(-c2ccc(C#N)cc2)cc1 (centres undefined)

Response given:
-1
-0.42
0.47
-0.12
-0.19
-0.08
0.88
0.92
